Could you please report measured log10 IC50 for the items listed next?
testedSystem: human HSL (Homo sapiens, UniProt Q05469)
Construct: overlapping PCR to generate a full length human HSL ORF with a 3′-His6 tag; His6 (C); made in house; host or cells: High 5 insect cells (baculovirus, pFast-BAC)
Sequence (Q05469 1-1076): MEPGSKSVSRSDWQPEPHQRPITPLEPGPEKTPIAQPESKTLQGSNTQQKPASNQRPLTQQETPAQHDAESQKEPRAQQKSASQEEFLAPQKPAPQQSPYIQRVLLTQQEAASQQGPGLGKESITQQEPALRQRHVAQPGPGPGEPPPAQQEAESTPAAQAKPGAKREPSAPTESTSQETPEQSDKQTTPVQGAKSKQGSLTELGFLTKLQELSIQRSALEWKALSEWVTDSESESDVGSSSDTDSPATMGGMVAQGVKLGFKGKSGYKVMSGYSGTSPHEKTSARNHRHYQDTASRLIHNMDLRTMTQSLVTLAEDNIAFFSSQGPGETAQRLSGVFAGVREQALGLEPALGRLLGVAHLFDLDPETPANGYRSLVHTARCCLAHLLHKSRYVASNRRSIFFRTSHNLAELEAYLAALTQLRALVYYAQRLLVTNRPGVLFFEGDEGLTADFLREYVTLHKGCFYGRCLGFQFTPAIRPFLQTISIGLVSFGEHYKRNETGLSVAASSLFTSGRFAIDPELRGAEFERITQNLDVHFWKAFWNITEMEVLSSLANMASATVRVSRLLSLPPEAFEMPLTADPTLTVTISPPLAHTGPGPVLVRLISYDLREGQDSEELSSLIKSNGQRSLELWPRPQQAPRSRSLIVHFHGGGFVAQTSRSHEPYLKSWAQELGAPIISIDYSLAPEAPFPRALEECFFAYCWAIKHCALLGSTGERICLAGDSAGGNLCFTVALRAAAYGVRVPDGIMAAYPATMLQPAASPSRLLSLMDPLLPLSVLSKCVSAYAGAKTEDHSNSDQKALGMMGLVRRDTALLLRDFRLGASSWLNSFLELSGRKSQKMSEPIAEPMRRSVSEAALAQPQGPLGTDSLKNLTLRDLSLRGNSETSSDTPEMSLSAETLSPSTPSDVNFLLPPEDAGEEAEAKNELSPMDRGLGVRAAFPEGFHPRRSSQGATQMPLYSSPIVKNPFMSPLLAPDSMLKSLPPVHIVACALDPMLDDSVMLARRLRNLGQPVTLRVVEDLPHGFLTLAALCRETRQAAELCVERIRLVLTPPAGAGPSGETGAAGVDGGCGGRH
experimentNotes: Human Hormone-Sensitive Lipase (HSL) Enzyme Inhibition Assay
Format: biochemical
runConditions: colorimetric assay, 2,3-dimercapto-1-propanol tributyrate (DMPT) substrate, 37° C. for 20 minutes, absorbance at 405 nm; read-out: HSL hum IC50
Protocol: Production of Human Full Length Hormone Sensitive Lipase-His^6 1) Cloning: cDNA was prepared from commercial human brain polyA-+ RNA and used as a template in overlapping PCR to generate a full length human HSL ORF with a 3′-His6 tag. […] Cells were thawed. […] The protein concentration was calculated from absorbance at 280 nm, using 280=0.67 cm-1 mg-1. […] HSL enzyme activity was measured by a colorimetric assay using 2,3-dimercapto-1-propanol tributyrate (Aldrich, St. Louis, Mo.) as a substrate. […]
Heads up: the numbers are on a log10 scale; they represent IC50 in nM.

Entry CC1(C(=O)N2CCC3(CC2)CCN(c2ccc(OCC(F)(F)F)cc2)C3=O)CC1(Cl)Cl (centres unmarked) : log10 IC50 on human HSL (Homo sapiens, UniProt Q05469) = 2.30

Entry CC(C)CS(=O)(=O)N1CCC2(CCN(c3ccc(OCC4CC4)cc3)C2=O)CC1 : log10 IC50 on human HSL (Homo sapiens, UniProt Q05469) = 2.43

Entry CCN(Cc1ccccc1F)C(=O)N1CCC2(CC1)CCN(c1ccc(OC(F)(F)F)cc1)C2=O : log10 IC50 on human HSL (Homo sapiens, UniProt Q05469) = 2.20

Entry CN(C(=O)N1CCC2(CC1)CCN(c1ccc(OC(F)(F)F)cc1)C2=O)c1ccc(C(F)(F)F)cc1 : log10 IC50 on human HSL (Homo sapiens, UniProt Q05469) = 2.23

Entry CC(C)NS(=O)(=O)N1CCC2(CCN(c3ccc(OC(F)(F)F)cc3)C2=O)CC1 : log10 IC50 on human HSL (Homo sapiens, UniProt Q05469) = 1.85

Entry COc1ccncc1S(=O)(=O)N1CCC2(CCN(c3ccc(OC(F)(F)F)cc3)C2=O)CC1 : log10 IC50 on human HSL (Homo sapiens, UniProt Q05469) = 2.23

Entry COc1ncccc1S(=O)(=O)N1CCC2(CCN(c3ccc(OC(F)(F)F)cc3)C2=O)CC1 : log10 IC50 on human HSL (Homo sapiens, UniProt Q05469) = 1.30

Entry O=C1N(CCCCc2ccccc2)CCC12CCN(S(=O)(=O)c1ccccc1Cl)CC2 : log10 IC50 on human HSL (Homo sapiens, UniProt Q05469) = 1.90
